Recorded values, source patent US20160016986A1.

experiment: Half-life of the active triphosphate in human hepatocytes; type: in vitro ADME; details: human, human hepatocytes, plated in 12-well format; read-out: half-life of triphosphate
OBSERVABLE: half-life

# input Name the reported half-life value associated with the compound [2H]c1cn(C2OC(C([2H])([2H])OP(=O)(O)OP(=O)(O)OP(=O)(O)O)[C@@H](O)[C@@]2(C)O)c(=O)[nH]c1=O (stereo partly shown) [Formula IV]
# output > 24 h

###

test: Half-life of the active triphosphate in human hepatocytes; assay type: in vitro ADME; conditions: beagle (dog), Sprague-Dawley (rat), cynomolgus monkey, plated in 12-well format; range over human, dog, monkey and rat hepatocytes; read-out: half-life of active triphosphate in hepatocytes
Task for the reader: assign each of the following compounds its reported half-life.

{"columns": ["COMPOUND", "half-life"],
 "data": [
  ["[2H]c1cn(C2OC(C([2H])([2H])OP(=O)(O)OP(=O)(O)OP(=O)(O)O)[C@@H](O)[C@@]2(C)O)c(=O)[nH]c1=O (some centres unmarked)", "10 to 30 h"]
]}

Let's switch to this compound now.
# input Name the reported half-life value associated with the compound C[C@@]1(F)[C@H](O)[C@@H](COP(=O)(O)OP(=O)(O)OP(=O)(O)O)O[C@H]1n1ccc(=O)[nH]c1=O
# output 8 to 23 h
